system: Aspergillus fumigatus; assay: Antimicrobial activity against Aspergillus fumigatus after 72 hrs by standard microbroth dilution assay; format: functional
MIC values, listed per item
recorded metric: MIC

• Cc1cccc2c1CCC(Cn1ccnc1)/C2=N/OCc1ccccc1 (centres undefined) = > 50 µg/mL
• Clc1cccc(CO/N=C2\c3ccccc3CCC2Cn2cncn2)c1 (centres undefined) = > 50 µg/mL
• OC(Cn1cncn1)(Cn1cncn1)c1ccc(F)cc1F [FLUCONAZOLE] = 2 µg/mL
• Clc1cccc2c1CCC(Cn1ccnc1)/C2=N\OCc1ccccc1 (centres undefined) = > 50 µg/mL
• Fc1cccc2c1CCC(Cn1ccnc1)/C2=N/OCc1ccccc1 (centres undefined) = > 50 µg/mL
• Clc1ccc(CO/N=C(\Cn2ccnc2)c2ccc(Cl)cc2Cl)c(Cl)c1 [OXICONAZOLE] = 6.25 µg/mL
• Clc1cccc2c1CCC(Cn1ccnc1)/C2=N/OCc1ccccc1 (centres undefined) = 25 µg/mL
• Clc1cccc(CO/N=C2/c3ccccc3CCC2Cn2ccnc2)c1 (centres undefined) = > 50 µg/mL
• Brc1cccc2c1CCC(Cn1cncn1)/C2=N/OCc1ccccc1 (centres undefined) = > 50 µg/mL
• Cc1cccc2c1CCC(Cn1cncn1)/C2=N/OCc1ccccc1 (centres undefined) = > 50 µg/mL
• Clc1cccc(CO/N=C2\c3cccc(Br)c3CCC2Cn2ccnc2)c1 (centres undefined) = > 50 µg/mL
• c1ccc(CO/N=C2\c3ccccc3CCC2Cn2ccnc2)cc1 (centres undefined) = 50 µg/mL
• c1ccc(CO/N=C2\c3ccccc3CCC2Cn2cncn2)cc1 (centres undefined) = > 50 µg/mL
• Clc1cccc(CO/N=C2\c3ccccc3CCC2Cn2ccnc2)c1 (centres undefined) = 25 µg/mL
• Fc1cccc2c1CCC(Cn1cncn1)/C2=N/OCc1ccccc1 (centres undefined) = > 50 µg/mL
• Brc1cccc2c1CCC(Cn1ccnc1)/C2=N/OCc1ccccc1 (centres undefined) = 50 µg/mL
• Clc1cccc(CO/N=C2\c3cccc(Cl)c3CCC2Cn2cncn2)c1 (centres undefined) = > 50 µg/mL
• Cc1cccc2c1CCC(Cn1ccnc1)/C2=N/OCc1cccc(Cl)c1 (centres undefined) = 50 µg/mL
• Fc1cccc2c1CCC(Cn1cncn1)/C2=N/OCc1cccc(Cl)c1 (centres undefined) = > 50 µg/mL
• Clc1cccc2c1CCC(Cn1cncn1)/C2=N/OCc1ccccc1 (centres undefined) = > 50 µg/mL
• Cc1cccc2c1CCC(Cn1cncn1)/C2=N/OCc1cccc(Cl)c1 (centres undefined) = > 50 µg/mL
• Clc1cccc(CO/N=C2/c3cccc(Br)c3CCC2Cn2ccnc2)c1 (centres undefined) = > 50 µg/mL
• Clc1cccc(CO/N=C2\c3cccc(Br)c3CCC2Cn2cncn2)c1 (centres undefined) = > 50 µg/mL
• Fc1cccc2c1CCC(Cn1ccnc1)/C2=N/OCc1cccc(Cl)c1 (centres undefined) = > 50 µg/mL
